- System: EPLC-272H
- Assay notes: relative viability (nuclei count vs DMSO), 5 days (fraction); higher = more cells survive
- Protocol conditions: first compound 0.08 µM
Friendly reminder: relative viability below 0.3 is class 1, at or above is class 0.

q: Lab note: relative viability threshold 0.3. Does this compound come in strictly under it? Oc1nc(-c2ccc(C(F)(F)F)cc2)nc2c1CSCC2 [XAV939] + NC(=O)Nc1cc(-c2cccc(F)c2)sc1C(=O)N[C@H]1CCCNC1 [AZD7762] (partner 0.2 µM)
a: class 1

q: Quick check: does C=C1C(=O)O[C@@H](CCCCCCCC)[C@@H]1C(=O)O [C-75] + C[C@@H](Oc1cc(-c2cnn(C3CCNCC3)c2)cnc1N)c1c(Cl)ccc(F)c1Cl [Crizotinib] (partner 1 µM) have relative viability under 0.3?
a: class 0

q: Please indicate whether the reported relative viability of C=C1C(=O)O[C@@H](CCCCCCCC)[C@@H]1C(=O)O [C-75] + CC(=O)Nc1cccc(-n2c(=O)n(C3CC3)c(=O)c3c(Nc4ccc(I)cc4F)n(C)c(=O)c(C)c32)c1 [Trametinib] (partner 0.02 µM) is strictly below 0.3.
a: class 0

q: Record Oc1nc(-c2ccc(C(F)(F)F)cc2)nc2c1CSCC2 [XAV939] + COc1cc2c(Oc3ccc(NC(=O)C4(C(=O)Nc5ccc(F)cc5)CC4)cc3F)ccnc2cc1OCCCN1CCOCC1 [Foretinib] (partner 0.25 µM) : is its relative viability strictly below 0.3?
a: class 0

q: Strictly below 0.3 in relative viability? Oc1nc(-c2ccc(C(F)(F)F)cc2)nc2c1CSCC2 [XAV939] + CC(=O)Nc1cccc(-n2c(=O)n(C3CC3)c(=O)c3c(Nc4ccc(I)cc4F)n(C)c(=O)c(C)c32)c1 [Trametinib] (partner 0.02 µM)
a: class 1

---

- Tested on: SW 1573
- Assay notes: relative viability (nuclei count vs DMSO), 5 days (fraction); higher = more cells survive
- Protocol conditions: first compound 0.8 µM
For each of the molecules below, state its relative viability.
Form rule: numeric answer, no unit written next to it.

q: Look up relative viability: Oc1nc(-c2ccc(C(F)(F)F)cc2)nc2c1CSCC2 [XAV939] + CCNC(=O)c1noc(-c2cc(C(C)C)c(O)cc2O)c1-c1ccc(CN2CCOCC2)cc1 [Luminespib] (partner 0.01 µM)
a: 0.136

q: Please report the recorded relative viability for Oc1nc(-c2ccc(C(F)(F)F)cc2)nc2c1CSCC2 [XAV939] + CS(=O)(=O)CCNCc1ccc(-c2ccc3ncnc(Nc4ccc(OCc5cccc(F)c5)c(Cl)c4)c3c2)o1 [Lapatinib] (partner 2 µM) .
a: 1.07

q: If you can, please state the reported relative viability value of C=C1C(=O)O[C@@H](CCCCCCCC)[C@@H]1C(=O)O [C-75] + CCNC(=O)c1noc(-c2cc(C(C)C)c(O)cc2O)c1-c1ccc(CN2CCOCC2)cc1 [Luminespib] (partner 0.01 µM) .
a: 0.207

q: What value of measured relative viability is listed for Oc1nc(-c2ccc(C(F)(F)F)cc2)nc2c1CSCC2 [XAV939] + C[C@]1(O)C[C@@H](c2nc(-c3ccc4ccc(-c5ccccc5)nc4c3)c3c(N)nccn32)C1 [Linsitinib] (partner 1 µM) ?
a: 0.739

q: Suppose we examine the molecule Oc1nc(-c2ccc(C(F)(F)F)cc2)nc2c1CSCC2 [XAV939] + N=C(N)NC(=N)NCCc1ccccc1 [Phenformin] (partner 250 µM) ; what relative viability value has been reported?
a: 0.369
